Assay overview: plasma pharmacokinetics (HPLC-MS/MS, population PK model)
Test settings: human, intravenous, 70 mg/m^2
Measurement kind: concentration at 2.25 h (ng/mL)
Give just the number in ng/mL; leave the unit off.

[ask] Name the reported concentration at 2.25 h value associated with the compound "CCc1cnn2c(NCc3ccc[n+]([O-])c3)cc(N3CCCC[C@H]3CCO)nc12"
[reply] 724

----------
Assay overview: plasma pharmacokinetics (HPLC-MS/MS, population PK model)
Test settings: human, intravenous, 50 mg/m^2
Measurement kind: concentration at 6 h (ng/mL)
Response body: numeric value in ng/mL, unit text excluded.

[ask] Which measured concentration at 6 h value corresponds to CCc1cnn2c(NCc3ccc[n+]([O-])c3)cc(N3CCCC[C@H]3CCO)nc12 [Dinaciclib] ?
[reply] 36.7
